STUDY TARGET: hydroquinone dioxygenase (HQDO) from Sphingomonas sp. strain TTNP3 (Sphingomonas sp. TTNP3, UniProt F8TW82+F8TW83)
Construct: gene hqdB; native enzyme purified from nonylphenol-induced cells; untagged; alpha2beta2 heterotetramer, 120 kDa by SEC, bands 38 kDa and 19 kDa; b63 order implies HqdA small and HqdB large, abstract order of identities contradicts
Sequence (F8TW83 1-341): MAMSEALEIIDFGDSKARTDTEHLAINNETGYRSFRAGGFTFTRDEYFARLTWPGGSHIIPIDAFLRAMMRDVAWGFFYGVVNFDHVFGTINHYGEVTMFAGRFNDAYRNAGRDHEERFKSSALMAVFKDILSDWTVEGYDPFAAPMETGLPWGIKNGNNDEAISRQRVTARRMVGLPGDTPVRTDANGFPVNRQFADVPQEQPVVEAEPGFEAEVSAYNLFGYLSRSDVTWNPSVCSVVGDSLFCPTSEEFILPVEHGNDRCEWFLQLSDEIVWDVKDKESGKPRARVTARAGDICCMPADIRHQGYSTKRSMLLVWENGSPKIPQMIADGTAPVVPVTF
Sequence (F8TW82 1-170): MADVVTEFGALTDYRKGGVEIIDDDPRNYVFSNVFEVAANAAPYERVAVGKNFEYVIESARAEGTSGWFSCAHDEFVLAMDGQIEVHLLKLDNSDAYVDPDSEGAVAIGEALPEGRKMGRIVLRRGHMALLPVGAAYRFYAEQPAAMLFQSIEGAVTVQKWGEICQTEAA
PROCEDURE DETAILS: residual activity on HQ with inhibitor
Assay type: biochemical
Label class 1 when activity at 200 µM is at or above 90%; otherwise label class 0.

A selection of reference data follows.
# MOLECULE, ASSIGNED LABEL
data = [
    ("O=C(O)c1ccc(O)c(O)c1 [3,4-Dihydroxybenzoate]", "class 1"),
    ("O=C(O)/C=C/c1ccc(O)cc1", "class 1"),
    ("O=[N+]([O-])c1ccc(O)cc1", "class 0"),
    ("Oc1ccccc1O", "class 1"),
]

Decide: is the reported value of activity at 200 µM for COc1cc(CO)ccc1O equal to or greater than 90%?
class 0

Decide: is the reported value of activity at 200 µM for Oc1cccc(O)c1 equal to or greater than 90%?
class 1

Decide: is the reported value of activity at 200 µM for Oc1ccccc1 equal to or greater than 90%?
class 1

Decide: is the reported value of activity at 200 µM for O=C(O)c1ccc(O)cc1 [4-Hydroxybenzoate] equal to or greater than 90%?
class 0

Decide: is the reported value of activity at 200 µM for COc1cc(C(=O)O)ccc1O [Vanillate] equal to or greater than 90%?
class 0
